This collection of values is drawn from the supplement of paper PMC9233669.

# Test system: biotinyl-Met-oxazolone
# assayProcedure: self-aminoacylation, catalytic enhancement (BMO) (fold over background); higher = more active; k-Seq, kA / k0A0; sequences stand for … in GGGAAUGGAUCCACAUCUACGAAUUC…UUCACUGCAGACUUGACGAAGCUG
Variants at the floor of the assay were thinned out.
readoutKind: self-aminoacylation
// return a plain number; no unit text

Some sequences with recorded self-aminoacylation:
AUUAGCAUGGUCAUCGAGUGA [Fam2.1 aminoacylation ribozyme variant] :: 3.11
CUAGUACAAACAAUCGGUCUG [Fam1A.1 aminoacylation ribozyme variant] :: 0.725
GUUACCCUCGUCAUCGAGUGA [Fam2.1 aminoacylation ribozyme variant] :: 4.14

// fetch self-aminoacylation given entry CCACACUUCAAGCAAACGGUG [Fam1B.1 aminoacylation ribozyme variant]
3.91

// fetch self-aminoacylation given entry AAUAACCUAGGUCAUCGGGUG [Fam2.2 aminoacylation ribozyme variant]
4.25

// fetch self-aminoacylation given entry AUGCACCUAGAUCAUCGGGUG [Fam2.2 aminoacylation ribozyme variant]
2.41

// fetch self-aminoacylation given entry AGUCACCUCGGUCAUCGGGUG [Fam2.2 aminoacylation ribozyme variant]
6.27

// fetch self-aminoacylation given entry AAGUUUGCAAAUAGUCGAAAG [Fam3.1 aminoacylation ribozyme variant]
0.974

###

# Test system: biotinyl-Met-oxazolone
# assayProcedure: self-aminoacylation, catalytic enhancement (BMO) (fold over background); higher = more active; k-Seq, kA / k0A0; sequences stand for … in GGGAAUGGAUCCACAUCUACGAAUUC…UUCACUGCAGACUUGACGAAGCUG
Variants at the floor of the assay were thinned out.
Recorded self-aminoacylation split into classes lower (below 1), middle (1 to below 6), upper (6 or more)

AUAACCCUGGUCAUCGAGAGA [Fam2.1 aminoacylation ribozyme variant] :: lower
AUUCACCUAGGUCAUCCAGUG [Fam2.2 aminoacylation ribozyme variant] :: upper
AUUACUAUGGUCAUCGAGUGA [Fam2.1 aminoacylation ribozyme variant] :: upper
CUACUGCUAACAAUCGGUCUG [Fam1A.1 aminoacylation ribozyme variant] :: lower
AUUCACCUAGGGCACCGGGUG [Fam2.2 aminoacylation ribozyme variant] :: middle
CCACCCUACAAGCAAUCGGUC [Fam1B.1 aminoacylation ribozyme variant] :: middle

Now let's try a different one.
Which class does CUGCUUCAAGCAAUCGGUCUG [Fam1A.1 aminoacylation ribozyme variant] fall in?
middle

###

# Test system: biotinyl-Ile-oxazolone
# assayProcedure: self-aminoacylation, catalytic enhancement (BIO) (fold over background); higher = more active; k-Seq, kA / k0A0; sequences stand for … in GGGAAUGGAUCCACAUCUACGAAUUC…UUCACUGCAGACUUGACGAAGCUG
Fewer inactive variants are shown than the library holds.
readoutKind: self-aminoacylation

Some sequences with recorded self-aminoacylation:
AUUACCGUGGCCAUCGAGUGA [Fam2.1 aminoacylation ribozyme variant] :: 3.2
ACUACCCUGGUCACCGAGUGA [Fam2.1 aminoacylation ribozyme variant] :: 4.67
AUUAACCUAGGUCGUCGGGUG [Fam2.2 aminoacylation ribozyme variant] :: 1.38
GUACUUCAAACAAUCGGUGUG [Fam1A.1 aminoacylation ribozyme variant] :: 2.12

Alright, here's another sequence for you.
State self-aminoacylation (biotinyl-Ile-oxazolone) of AAGUAUGAUAAUAGUCGCAAG [Fam3.1 aminoacylation ribozyme variant] .
1.22
